All values here come from patent US20250340623A1.

// values below are reported koff
- Assayed target: alpha-synuclein fibrils (UniProt P37840 1-140)
- Assay protocol: SPR, captured mAb
A complete answer gives the number and then names the unit.

Query :: Quick one: koff for ACI-8032-6301C8-Ab2 (antibody, V domains shown, mouse hybridoma mAb; VH/VL only; also called 6301C8G12) VH: QVQLQQSGAELARPGTSVKLSCKASGYTFTTYGISWVKQRTGQGLEWIGEIYPRSGNTYYNEKFKGKATLTADKPSSTAYMELRSLTSEDSAVYFCASESYYGDYAWYFDVWGTGTTVTVSS VL: DVLMTQIPLSLPVSLGDQASISCRSSQSIVHSNGNTYLEWHLQKPGQSPKLLIYEVSNRFSGVPDRFSGSGSGTDFTLNISRVEAEDLGVYYCFQGSHVPPTFGGGTKLEIK ?
Result :: 0.00355 s⁻¹

Query :: What do you get for ACI-8031-6207G10-Ab1 (antibody, V domains shown, mouse hybridoma mAb; VH/VL only; also called 6207G10E6) VH: QVQLQQSGAELVKPGASVKISCKASGYAFSSYWMNWVKQRPGKGLEWIGQIYPGDGDTNYNGKFKGKATLTADRSSSTAYMQLSSLTSEDSAVYFCAITHYDYWGQGTTLTVSS VL: DILLTQSPAILSVSPGDRVSFSCRASQSIGTRIHWYQQRTNGSPRLLIKYASESISGTPSRFSGSGSGTDFTLSINSVESEDIADYYCQQSNSWPLTFGAGTKLELK ?
Result :: 0.00015 s⁻¹

Query :: What do you get for ACI-8033-22E5-Ab1 (antibody, V domains shown, mouse hybridoma mAb; VH/VL only; also called 917.22E5C5F7) VH: EVQLVESGGDLVKPGGSLKLSCAASGFTFSSYGMSWVRQTPDKRLEWVATISNGGSYTYYPDSVKGRFTISRDNAKNTLYLQMSSLKSEDTAMYYCARQLRRDGWYFDVWGTGTTVTVSS VL: EIVLTQSPALMAASPGEKVTITCSVSSSISSSKLHWYQQKSETSPKLWIYGTSNLASGVPVRFSGSGSGTSYSLTISSMEAEDAATYYCQQWSSYPLTFGAGTKLELK ?
Result :: 3.27e-05 s⁻¹

Query :: What do you get for ACI-7067-4813-R4A-G7-rec1 (antibody, mouse IgG2a, V domains shown, from phage display of immunised mice; positive clones expressed recombinantly as murine IgG2a; VH/VL only; also called ACI-7067-R4A-G7-Ab-1) VH: EVQLEESGGGLVHPKGSLKLSCAASGFTFNSYAMHWVRQAPGKGLEWVARIRSKRSNYATYYADSVKDRFTISRDDSQSMVYLEMNNLEAEDTATYYCVRGGREAMDFWGQGTSVTVSS VL: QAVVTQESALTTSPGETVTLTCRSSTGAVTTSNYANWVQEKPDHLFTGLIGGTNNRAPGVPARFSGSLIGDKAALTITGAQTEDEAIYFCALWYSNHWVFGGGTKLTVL ?
Result :: 1.34e-07 s⁻¹

Query :: What do you get for ACI-7079-3103G12-Ab2 (antibody, V domains shown, mouse hybridoma mAb; VH/VL only; also called 3103G12D2B10) VH: DVQLQESGPGMVKPSQSLSLTCTVTGYSITSGYDWHWIRHFPGNKLEWMGYITYSGSTNYNPSLKSRISITHDTSKNHFFLKLTSVTTEDTATYYCARDTVDAWFAYWGQGTLVTVSA VL: DVLMTQAPLSLPVSLGDQASISCRSSQSIVHSNGDTYLEWYLQKPGQSPKLLIYKVSNRFSGVPDRFSGSGSGTDFTLKISRVEAEDLGVYYCFQGSHVPPTFGGGTKLEIK ?
Result :: 0.000563 s⁻¹
